Entries and their pIC50
- target-desc: SETD2(1434-1711) (Homo sapiens, UniProt Q9BYW2)
- Construct: SETD2 (1434-1711) Assay; catalogue N/A
- Sequence (Q9BYW2 1434-1711): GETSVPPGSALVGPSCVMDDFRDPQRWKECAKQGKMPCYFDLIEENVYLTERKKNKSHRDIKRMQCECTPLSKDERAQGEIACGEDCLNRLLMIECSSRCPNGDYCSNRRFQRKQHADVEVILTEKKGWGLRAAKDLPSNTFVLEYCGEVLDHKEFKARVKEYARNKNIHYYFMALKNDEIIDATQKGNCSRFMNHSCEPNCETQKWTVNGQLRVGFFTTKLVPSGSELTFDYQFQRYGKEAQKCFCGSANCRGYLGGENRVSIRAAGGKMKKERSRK
- assay-procedure: SETD2 (1434-1711) assay
- Assay type: biochemical
- run-conditions: read-out: SETD2 (1434-1711)
pIC50: −log10 of the molar value.
value-kind: pIC50

{"molecule": "CC(=O)N1CC2CN(C3CCCC(NC(=O)c4cc5c(F)ccc(C)c5[nH]4)C3)CC2C1 (stereo not shown) [compound 1177]", "recorded-number": 7.52}
{"molecule": "Cc1ccc(F)c2cc(C(=O)NC3C(=O)N(C)CCc4ccccc43)[nH]c12 (stereo not shown)", "recorded-number": 6.30}
{"molecule": "Cc1ccc(F)c2cc(C(=O)NC(C(=O)Nc3ccccc3)c3ccccn3)[nH]c12 (stereo not shown)", "recorded-number": 5.43}
{"molecule": "Cc1ccc(F)c2cc(C(=O)N[C@@H]3CCC[C@H](N4CCn5c(c[nH]c5=O)C4)C3)[nH]c12", "recorded-number": 7.70}

* * *

- target-desc: SETD2(1434-1711) (Homo sapiens, UniProt Q9BYW2)
- Construct: SETD2 (1434-1711) Assay; catalogue N/A
- assay-procedure: SETD2 (1434-1711) assay
- Assay type: biochemical
- run-conditions: read-out: SETD2 (1434-1711)
pIC50: −log10 of the molar value.
The threshold is inclusive: pIC50 of exactly 7 counts as condition met; values below receive condition not met.

{"compound": "Cc1ccc(F)c2cc(C(=O)NC3CCCC(N4CCC(N(C)C(=O)C(C)(C)O)C4)C3)[nH]c12 (centres unmarked) [compound 1147]", "class-assignment": "condition not met"}
{"compound": "Cc1ccc(F)c2cc(C(=O)Nc3cccc(N4CCCC4=O)c3)[nH]c12 [compound 118]", "class-assignment": "condition met"}
{"compound": "Cc1ccc(F)c2cc(C(=O)N[C@@H]3CCC[C@@H](N4CC5(CNC(=O)C5)C4)C3)[nH]c12 [compound 898]", "class-assignment": "condition not met"}
{"compound": "Cc1cccc2cc(C(=O)NCCc3cc(Cl)ccc3N3CCOCC3)[nH]c12 [compound 622]", "class-assignment": "condition not met"}
{"compound": "Cc1ccc(F)c2cc(C(=O)Nc3cccc(C4CCN(C(=O)CN(C)C)C4)c3)[nH]c12 (centres unmarked) [compound 226]", "class-assignment": "condition met"}
{"compound": "Cc1ccc(F)c2cc(C(=O)Nc3cccc(N4CCN(C5CC5)C(=O)C4)c3)[nH]c12 [compound 100]", "class-assignment": "condition met"}
{"compound": "Cc1ccc(F)c2cc(C(=O)NC3CCCC(N4CCN5C(=O)COCC5C4)C3)[nH]c12 (centres unmarked) [compound 1067]", "class-assignment": "condition not met"}
{"compound": "Cc1cccc2cc(C(=O)NCCc3ccccc3-n3ccnc3)[nH]c12 [compound 580]", "class-assignment": "condition not met"}
